- Test system: TRPC4 (mouse), co-expressed with 5HT1a in HEK293
- Test: enhancement of serotonin-evoked TRPC4 response – cell-based, second counter screen, HEK293 TRPC4/5HT1a, Fluo-4, counter-screen for TRPC4 potentiator project, confirmation (AID 434979)
- Measurement context: Fluo-4 calcium flux, at 10 µM, serotonin added at its EC20 dose
The source made the active and inactive calls.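 How the source made its calls: active means signal rise over 3 SD above mean of control wells given weak agonist, in both repeats and first screen; inactive means the rest.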
Entry note: the call must match one of y for active, n for inactive

Here's what some known entries look like.
| Compound | Category |
| --- | --- |
| Cc1cc(N2CCN(C)CC2)n2cc(-c3ccc(F)cc3)nc2n1 | y |
| CC(C)c1cccc(OCCCCN(C)C)c1 | y |
| Cc1cccc(NC(=O)CSc2nnc(-c3cc(C)n(-c4ccccc4)c3C)o2)c1C | n |

Query string: Entry CN(C)C(CNc1ccc(C(F)(F)F)cn1)c1ccccc1 (stereo not drawn) : call = ?
Result string: n

----------
- Tested on: TRPC4 (mouse), co-expressed with 5HT1a in HEK293
- Test: enhancement of serotonin-evoked TRPC4 response – cell-based, second counter screen, HEK293 TRPC4/5HT1a, Fluo-4, counter-screen for TRPC4 potentiator project, confirmation (AID 434979)
- Measurement context: Fluo-4 calcium flux, at 10 µM, serotonin added at its EC20 dose; active compounds read high
Calls of active or inactive are those of the source.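 The calls were made as follows: active = signal rise over 3 SD above mean of control wells given weak agonist, in both repeats and first screen; inactive = the rest.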
Quantity measured: potentiation

Here are 5 compounds together with their reported answers.
| Compound | potentiation |
| --- | --- |
| COc1ccccc1N1CCN(C(c2cccs2)C(C)NC(=O)c2ccco2)CC1 (stereo unspecified) | inactive |
| CCCc1c(O)nc(SCCN(CC)CC)[nH]c1=O | inactive |
| COc1ccc(CSCCN)cc1Cl | inactive |
| CCOc1ccc(NS(=O)(=O)c2ccc(NC(=S)NC(=O)CC(C)C)cc2)cc1 | 6.51% (active) |
| CC(=O)N1N=C(c2c(-c3ccccc3)c3cc(C)ccc3[nH]c2=O)CC1c1ccco1 (stereo unspecified) | 15.5% (active) |

Query string: # assay system TRPC4 (mouse), co-expressed with 5HT1a in HEK293: give potentiation of Cc1ccc(/C=C/C(=O)NC2CCCCCCC2)o1
Result string: 19.1% (active)

----------
- Test system: Short transient receptor potential channel 6 (Mus musculus)
- Test: positive modulators of mouse TRPC6 channel – HEK293 cells, membrane potential dye, duplicate, selectivity assay for TRPC4 potentiator project, confirmation (AID 434952)
- Measurement context: HEK293 TRPC6, membrane potential dye fluorescence, at 10 µM, maximal acetylcholine added after compound
Active and inactive are the calls of the source.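 The calls were made as follows: active = compound raising the membrane signal above positive-control mean plus 3 SD in both repeats, and a primary screen hit; inactive = the rest.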
Entry note: the call must match one of 1 (yes) (active), 0 (no) (inactive)

Here's what some known entries look like.
| Compound | Category |
| --- | --- |
| CCn1nc(C)c(CN2CCCC(CO)(Cc3cccc(Cl)c3)C2)c1C (centres undefined) | 0 (no) |
| CC(C)n1c(NCc2c[nH]c3ccccc23)nc2ccccc21 | 0 (no) |
| CCN(CCO)Cc1csc2ccc(Br)cc12 | 0 (no) |

Query string: Entry COCCn1c(SCC(=O)Nc2ccccc2OC)nc2c([nH]c3ccccc32)c1=O : call = ?
Result string: 0 (no)

Query string: Entry CCn1c(=O)n(CCOC)c(=O)c2c3c(sc21)CCCC3 : call = ?
Result string: 0 (no)

Query string: Entry CC(=O)NC(CC(=O)NCC(c1ccco1)N(C)C)c1ccccc1 (centres undefined) : call = ?
Result string: 0 (no)

Query string: Entry Cc1ccc(Cl)cc1N1CCN(Cc2nc3ccsc3c(=O)[nH]2)CC1 : call = ?
Result string: 0 (no)

----------
- Test system: Short transient receptor potential channel 4 (Mus musculus) (UniProt Q9QUQ5)
- Sequence (Q9QUQ5 whole entry, looked up): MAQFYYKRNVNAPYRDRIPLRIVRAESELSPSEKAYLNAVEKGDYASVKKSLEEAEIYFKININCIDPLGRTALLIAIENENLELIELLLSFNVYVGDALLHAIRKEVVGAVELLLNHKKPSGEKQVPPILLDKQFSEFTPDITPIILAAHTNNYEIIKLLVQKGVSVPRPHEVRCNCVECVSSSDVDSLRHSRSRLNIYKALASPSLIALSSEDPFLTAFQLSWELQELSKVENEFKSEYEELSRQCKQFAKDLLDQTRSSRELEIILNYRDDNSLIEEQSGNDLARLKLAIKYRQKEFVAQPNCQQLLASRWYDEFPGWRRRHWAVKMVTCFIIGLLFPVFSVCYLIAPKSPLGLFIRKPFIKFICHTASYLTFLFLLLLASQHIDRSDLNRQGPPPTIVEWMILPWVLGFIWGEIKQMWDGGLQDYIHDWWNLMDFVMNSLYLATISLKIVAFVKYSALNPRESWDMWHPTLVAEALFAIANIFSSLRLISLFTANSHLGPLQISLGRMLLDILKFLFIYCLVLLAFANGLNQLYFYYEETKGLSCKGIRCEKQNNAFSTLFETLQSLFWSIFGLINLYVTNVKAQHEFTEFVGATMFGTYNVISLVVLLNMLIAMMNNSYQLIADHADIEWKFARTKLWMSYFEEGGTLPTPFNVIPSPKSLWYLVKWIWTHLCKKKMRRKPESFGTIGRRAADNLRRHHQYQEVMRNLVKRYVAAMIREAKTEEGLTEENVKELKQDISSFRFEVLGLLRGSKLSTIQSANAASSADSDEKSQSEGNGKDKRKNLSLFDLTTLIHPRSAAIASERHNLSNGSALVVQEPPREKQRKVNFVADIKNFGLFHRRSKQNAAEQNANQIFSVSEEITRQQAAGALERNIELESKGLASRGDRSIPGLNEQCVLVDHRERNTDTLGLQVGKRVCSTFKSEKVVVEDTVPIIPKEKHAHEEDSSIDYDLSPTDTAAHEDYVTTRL
- Test: blockers of DAMGO-evoked TRPC4 calcium flux – cell-based, second round, Fluo4, HEK293 TRPC4beta/mu-opioid, 1 µM, confirmation (AID 2637)
- Measurement context: at 1 µM
Calls of active or inactive are those of the source.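 Rule for the calls: active = calcium signal ratio cut to more than 3 SD under the fully stimulated control mean yet still positive, in both repeats and the primary screen; inactive = the rest.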
Entry note: the call must match one of 1.0 = active, 0.0 = inactive

Here's what some known entries look like.
| Molecule | Category |
| --- | --- |
| CCCc1ccc(OCc2ccc(C(=O)N3CCCC3)o2)cc1 | 0.0 |
| COCCn1c(SCc2ccccc2F)nc2ccccc2c1=O | 0.0 |
| Cc1nn(-c2ccccc2)c(Cl)c1CN(C(=O)CCl)c1ccc(Cl)cc1 | 1.0 |
| CSc1ccc(S(=O)(=O)NCC(=O)OCC(=O)N(C)Cc2ccccc2)cc1[N+](=O)[O-] | 0.0 |
| CCCCN(C)C(=O)Cn1ncc2c3ccccc3n(CCC)c2c1=O | 0.0 |

Now for another entry.
Query string: Entry COc1cc2nc(=S)n3[nH]c(CCn4nc(C)cc4C)nc3c2cc1OC : call = ?
Result string: 0.0

----------
- Tested on: TRPC4 (mouse), co-expressed with 5HT1a in HEK293
- Test: enhancement of serotonin-evoked TRPC4 response – cell-based, second counter screen, HEK293 TRPC4/5HT1a, Fluo-4, counter-screen for TRPC4 potentiator project, confirmation (AID 434979)
- Measurement context: Fluo-4 calcium flux, at 10 µM, serotonin added at its EC20 dose
Calls of active or inactive are those of the source.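 Rule for the calls: active = signal rise over 3 SD above mean of control wells given weak agonist, in both repeats and first screen; inactive = the rest.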
Entry note: the call must match one of yes (1) for active, no (0) for inactive

Here's what some known entries look like.
| Compound | Category |
| --- | --- |
| CCCCCc1c(O)nc(SCCN(C)C)[nH]c1=O | no (0) |
| CCN(CC)CCn1c(=N)n(CC(O)COc2cccc(C)c2)c2ccccc21 (stereo not given) | no (0) |
| COc1cccc(N2C(=O)CC(N3CCN(CCN=CC4=C(O)CC(C)(C)CC4=O)CC3)C2=O)c1 (stereo not given) | yes (1) |

Query string: Entry CCN1CCN(C(=O)c2cc(-c3ccc(Cl)s3)nc3ccccc23)CC1 : call = ?
Result string: yes (1)

Query string: Entry Cc1ccc(S(=O)(=O)c2cnc(-c3ccccc3)nc2N2CCN(C)CC2)cc1 : call = ?
Result string: no (0)

----------
- Test system: Short transient receptor potential channel 4 (Mus musculus)
- Test: blockers of DAMGO-evoked TRPC4 calcium flux – cell-based, second round, Fluo4, HEK293 TRPC4beta/mu-opioid, 1 µM, confirmation (AID 2637)
- Measurement context: at 1 µM
Active and inactive are the calls of the source.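 The calls were made as follows: active = calcium signal ratio cut to more than 3 SD under the fully stimulated control mean yet still positive, in both repeats and the primary screen; inactive = the rest.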
Entry note: the call must match one of active, inactive

Here's what some known entries look like.
| Compound | Test system | Category |
| --- | --- | --- |
| CCCCN(CC)CCNC(=O)c1cc2c(-c3ccc(Cl)cc3)nn(C)c2s1 | Short transient receptor potential channel 4 (Mus musculus) | inactive |
| COc1cc(CN2CCC(CO)(CCOc3ccccc3)CC2)cc(OC)c1 | Short transient receptor potential channel 4 (Mus musculus) | inactive |
| CN(C)C(CNC(=O)c1ccc2nc[nH]c2c1)c1ccccc1 (stereo unspecified) | Short transient receptor potential channel 4 (Mus musculus) | inactive |

Query string: Entry Cc1ccc2[nH]c(C)c(CCN(Cc3cccnc3)C(=S)NC(C)(C)C)c2c1 : call = ?
Result string: inactive

Query string: Entry O=C(Cn1c(NCCCO)nc2ccccc21)c1ccc(Br)cc1 : call = ?
Result string: active

Query string: Entry Cc1ccc(C[n+]2cc(-c3ccc(Cl)cc3)n3c2CCC3)cc1 : call = ?
Result string: active

----------
- Test system: Short transient receptor potential channel 4 (Mus musculus)
- Test: blockers of DAMGO-evoked TRPC4 calcium flux – cell-based, second round, Fluo4, HEK293 TRPC4beta/mu-opioid, 1 µM, confirmation (AID 2637)
- Measurement context: at 1 µM
Active and inactive are the calls of the source.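 The calls were made as follows: active = calcium signal ratio cut to more than 3 SD under the fully stimulated control mean yet still positive, in both repeats and the primary screen; inactive = the rest.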
Entry note: the call must match one of class 1 for active, class 0 for inactive

Here's what some known entries look like.
| Compound | Category |
| --- | --- |
| CCc1nc2ccccc2n1Cc1ccccc1F | class 0 |
| O=C(OCC(=O)N1CCc2ccccc2C1)c1cccc([N+](=O)[O-])c1 | class 1 |
| CCC(=O)c1ccc(N2CCN(C(=O)c3ccccc3Br)CC2)c(F)c1 | class 0 |
| O=C(Nc1ccc(Oc2ccccc2)nc1)C1CCN(Cc2ccccc2)CC1 | class 0 |
| Oc1c(CN2CCCCC2)cc(Br)c2cccnc12 | class 0 |

Query string: Entry O=C(Nc1ccccc1N1CCN(C(=O)c2ccccc2)CC1)c1ccc(Br)o1 : call = ?
Result string: class 1

Query string: Entry c1ccc(C2(CN3CCNC[C@H]3Cc3cccc4ccccc34)CC2)cc1 : call = ?
Result string: class 0

Query string: Entry CCCNC(=O)c1nnsc1S(=O)c1ccc(Cl)cc1 (stereo unspecified) : call = ?
Result string: class 1

----------
- Test: nonspecific calcium rise without TRPC4 – cell-based, HEK293 mu-opioid receptor line, counter-screen for TRPC4 activator project, confirmation (AID 449723);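 further: counter screen cells carry the mu-opioid receptor alone and lack TRPC4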
- Measurement context: HEK293 mu-opioid cells, Fluo-4 calcium fluorescence, at 10 µM
Calls of active or inactive are those of the source.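 How the source made its calls: active means hit in primary screen, with calcium signal over 5 SD above buffer well mean in both duplicates; inactive means the rest.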
Entry note: the call must match one of YES for active, NO for inactive

Here's what some known entries look like.
| Compound | Category |
| --- | --- |
| Cc1cccc(Cn2c(C(C)(C)C)cc3cccnc32)c1 | NO |
| OC1(c2ccc(F)cc2)CCN(Cc2ccccc2)C1 (centres undefined) | NO |
| CCOc1ccc2ccccc2c1/C=N/NC(=O)c1cc(C)[nH]n1 | NO |
| CC(=O)C1=C(O)C(=O)N(Cc2ccccc2)C1c1ccc([N+](=O)[O-])cc1 (centres undefined) | NO |
| Cc1ccccc1-c1n[nH]c(=S)n1Cc1ccccc1 | NO |
| Cc1cc(N2CCC(C)CC2)nc2cccc(O)c12 | NO |
| O=C(CNc1ccc(Br)cc1)c1ccc(O)cc1 | NO |
| FC(F)Oc1ccccc1NC(=S)Nc1cccc(Cl)c1Cl | NO |
| NC(=O)c1nsc(C(=O)N(Cc2ccco2)C(C(=O)NCC2CCCO2)c2ccc(F)cc2)c1N (centres undefined) | NO |
| Oc1c(Br)cc(Br)cc1C=Nc1ccc2[nH]ncc2c1 | NO |

Now for another entry.
Query string: Entry O=S(=O)(c1ccc(Oc2ccc(Br)cc2)cc1)N1CCOCC1 : call = ?
Result string: NO

Values compiled from PubChem BioAssay.
